Readings of abundance fitness for the listed variants
B1: Serine/threonine-protein kinase A-Raf, residues 21 to 89; numbered along this chain, P10398 (parent)
chain: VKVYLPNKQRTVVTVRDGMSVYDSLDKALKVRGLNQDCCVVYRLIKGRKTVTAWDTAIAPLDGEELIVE

- Variants of: B1
- protocol_text: abundance fitness (aPCA) (normalised: wild type 0, dead -1); higher = more abundant; growth selection in yeast, the domain comes from the species named
- test_context: Homo sapiens
Lab note: jot down the number only; don't add units.

// field: abundance fitness; key: "V3P" ; value = -1.01

Further cases:
For record "K30W" the listed abundance fitness is -0.969

The reported value for "A28E" in terms of abundance fitness is -0.195

The recorded abundance fitness for entry "V21S" equals -0.858

Measured abundance fitness, "L44Y" : -0.037

abundance fitness reading for "V3F" : -0.552
